This collection of values is drawn from paper PMC10111164.

testedTarget: purified full-length human Artemis with DNA-PKcs (Homo sapiens, UniProt Q96SD1)
Sequence (Q96SD1 whole entry): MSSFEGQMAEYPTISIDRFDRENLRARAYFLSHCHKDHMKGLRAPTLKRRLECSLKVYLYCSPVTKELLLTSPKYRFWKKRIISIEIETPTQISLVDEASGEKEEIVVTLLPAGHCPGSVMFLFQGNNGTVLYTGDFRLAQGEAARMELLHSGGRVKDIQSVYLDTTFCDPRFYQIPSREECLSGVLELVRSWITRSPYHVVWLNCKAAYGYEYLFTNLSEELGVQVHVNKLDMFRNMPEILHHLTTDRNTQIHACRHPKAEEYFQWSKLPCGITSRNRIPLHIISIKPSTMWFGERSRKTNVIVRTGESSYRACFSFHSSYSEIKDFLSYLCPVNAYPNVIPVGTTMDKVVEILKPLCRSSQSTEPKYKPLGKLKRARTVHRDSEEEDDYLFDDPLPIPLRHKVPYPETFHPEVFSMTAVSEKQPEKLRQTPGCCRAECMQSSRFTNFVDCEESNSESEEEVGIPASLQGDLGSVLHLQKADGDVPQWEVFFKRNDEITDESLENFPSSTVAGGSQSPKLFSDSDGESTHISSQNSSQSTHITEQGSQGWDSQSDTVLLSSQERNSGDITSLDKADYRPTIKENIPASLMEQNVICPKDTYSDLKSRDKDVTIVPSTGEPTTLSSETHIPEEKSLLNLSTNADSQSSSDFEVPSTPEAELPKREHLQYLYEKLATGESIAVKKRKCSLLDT
Sequence (P78527 whole entry partner): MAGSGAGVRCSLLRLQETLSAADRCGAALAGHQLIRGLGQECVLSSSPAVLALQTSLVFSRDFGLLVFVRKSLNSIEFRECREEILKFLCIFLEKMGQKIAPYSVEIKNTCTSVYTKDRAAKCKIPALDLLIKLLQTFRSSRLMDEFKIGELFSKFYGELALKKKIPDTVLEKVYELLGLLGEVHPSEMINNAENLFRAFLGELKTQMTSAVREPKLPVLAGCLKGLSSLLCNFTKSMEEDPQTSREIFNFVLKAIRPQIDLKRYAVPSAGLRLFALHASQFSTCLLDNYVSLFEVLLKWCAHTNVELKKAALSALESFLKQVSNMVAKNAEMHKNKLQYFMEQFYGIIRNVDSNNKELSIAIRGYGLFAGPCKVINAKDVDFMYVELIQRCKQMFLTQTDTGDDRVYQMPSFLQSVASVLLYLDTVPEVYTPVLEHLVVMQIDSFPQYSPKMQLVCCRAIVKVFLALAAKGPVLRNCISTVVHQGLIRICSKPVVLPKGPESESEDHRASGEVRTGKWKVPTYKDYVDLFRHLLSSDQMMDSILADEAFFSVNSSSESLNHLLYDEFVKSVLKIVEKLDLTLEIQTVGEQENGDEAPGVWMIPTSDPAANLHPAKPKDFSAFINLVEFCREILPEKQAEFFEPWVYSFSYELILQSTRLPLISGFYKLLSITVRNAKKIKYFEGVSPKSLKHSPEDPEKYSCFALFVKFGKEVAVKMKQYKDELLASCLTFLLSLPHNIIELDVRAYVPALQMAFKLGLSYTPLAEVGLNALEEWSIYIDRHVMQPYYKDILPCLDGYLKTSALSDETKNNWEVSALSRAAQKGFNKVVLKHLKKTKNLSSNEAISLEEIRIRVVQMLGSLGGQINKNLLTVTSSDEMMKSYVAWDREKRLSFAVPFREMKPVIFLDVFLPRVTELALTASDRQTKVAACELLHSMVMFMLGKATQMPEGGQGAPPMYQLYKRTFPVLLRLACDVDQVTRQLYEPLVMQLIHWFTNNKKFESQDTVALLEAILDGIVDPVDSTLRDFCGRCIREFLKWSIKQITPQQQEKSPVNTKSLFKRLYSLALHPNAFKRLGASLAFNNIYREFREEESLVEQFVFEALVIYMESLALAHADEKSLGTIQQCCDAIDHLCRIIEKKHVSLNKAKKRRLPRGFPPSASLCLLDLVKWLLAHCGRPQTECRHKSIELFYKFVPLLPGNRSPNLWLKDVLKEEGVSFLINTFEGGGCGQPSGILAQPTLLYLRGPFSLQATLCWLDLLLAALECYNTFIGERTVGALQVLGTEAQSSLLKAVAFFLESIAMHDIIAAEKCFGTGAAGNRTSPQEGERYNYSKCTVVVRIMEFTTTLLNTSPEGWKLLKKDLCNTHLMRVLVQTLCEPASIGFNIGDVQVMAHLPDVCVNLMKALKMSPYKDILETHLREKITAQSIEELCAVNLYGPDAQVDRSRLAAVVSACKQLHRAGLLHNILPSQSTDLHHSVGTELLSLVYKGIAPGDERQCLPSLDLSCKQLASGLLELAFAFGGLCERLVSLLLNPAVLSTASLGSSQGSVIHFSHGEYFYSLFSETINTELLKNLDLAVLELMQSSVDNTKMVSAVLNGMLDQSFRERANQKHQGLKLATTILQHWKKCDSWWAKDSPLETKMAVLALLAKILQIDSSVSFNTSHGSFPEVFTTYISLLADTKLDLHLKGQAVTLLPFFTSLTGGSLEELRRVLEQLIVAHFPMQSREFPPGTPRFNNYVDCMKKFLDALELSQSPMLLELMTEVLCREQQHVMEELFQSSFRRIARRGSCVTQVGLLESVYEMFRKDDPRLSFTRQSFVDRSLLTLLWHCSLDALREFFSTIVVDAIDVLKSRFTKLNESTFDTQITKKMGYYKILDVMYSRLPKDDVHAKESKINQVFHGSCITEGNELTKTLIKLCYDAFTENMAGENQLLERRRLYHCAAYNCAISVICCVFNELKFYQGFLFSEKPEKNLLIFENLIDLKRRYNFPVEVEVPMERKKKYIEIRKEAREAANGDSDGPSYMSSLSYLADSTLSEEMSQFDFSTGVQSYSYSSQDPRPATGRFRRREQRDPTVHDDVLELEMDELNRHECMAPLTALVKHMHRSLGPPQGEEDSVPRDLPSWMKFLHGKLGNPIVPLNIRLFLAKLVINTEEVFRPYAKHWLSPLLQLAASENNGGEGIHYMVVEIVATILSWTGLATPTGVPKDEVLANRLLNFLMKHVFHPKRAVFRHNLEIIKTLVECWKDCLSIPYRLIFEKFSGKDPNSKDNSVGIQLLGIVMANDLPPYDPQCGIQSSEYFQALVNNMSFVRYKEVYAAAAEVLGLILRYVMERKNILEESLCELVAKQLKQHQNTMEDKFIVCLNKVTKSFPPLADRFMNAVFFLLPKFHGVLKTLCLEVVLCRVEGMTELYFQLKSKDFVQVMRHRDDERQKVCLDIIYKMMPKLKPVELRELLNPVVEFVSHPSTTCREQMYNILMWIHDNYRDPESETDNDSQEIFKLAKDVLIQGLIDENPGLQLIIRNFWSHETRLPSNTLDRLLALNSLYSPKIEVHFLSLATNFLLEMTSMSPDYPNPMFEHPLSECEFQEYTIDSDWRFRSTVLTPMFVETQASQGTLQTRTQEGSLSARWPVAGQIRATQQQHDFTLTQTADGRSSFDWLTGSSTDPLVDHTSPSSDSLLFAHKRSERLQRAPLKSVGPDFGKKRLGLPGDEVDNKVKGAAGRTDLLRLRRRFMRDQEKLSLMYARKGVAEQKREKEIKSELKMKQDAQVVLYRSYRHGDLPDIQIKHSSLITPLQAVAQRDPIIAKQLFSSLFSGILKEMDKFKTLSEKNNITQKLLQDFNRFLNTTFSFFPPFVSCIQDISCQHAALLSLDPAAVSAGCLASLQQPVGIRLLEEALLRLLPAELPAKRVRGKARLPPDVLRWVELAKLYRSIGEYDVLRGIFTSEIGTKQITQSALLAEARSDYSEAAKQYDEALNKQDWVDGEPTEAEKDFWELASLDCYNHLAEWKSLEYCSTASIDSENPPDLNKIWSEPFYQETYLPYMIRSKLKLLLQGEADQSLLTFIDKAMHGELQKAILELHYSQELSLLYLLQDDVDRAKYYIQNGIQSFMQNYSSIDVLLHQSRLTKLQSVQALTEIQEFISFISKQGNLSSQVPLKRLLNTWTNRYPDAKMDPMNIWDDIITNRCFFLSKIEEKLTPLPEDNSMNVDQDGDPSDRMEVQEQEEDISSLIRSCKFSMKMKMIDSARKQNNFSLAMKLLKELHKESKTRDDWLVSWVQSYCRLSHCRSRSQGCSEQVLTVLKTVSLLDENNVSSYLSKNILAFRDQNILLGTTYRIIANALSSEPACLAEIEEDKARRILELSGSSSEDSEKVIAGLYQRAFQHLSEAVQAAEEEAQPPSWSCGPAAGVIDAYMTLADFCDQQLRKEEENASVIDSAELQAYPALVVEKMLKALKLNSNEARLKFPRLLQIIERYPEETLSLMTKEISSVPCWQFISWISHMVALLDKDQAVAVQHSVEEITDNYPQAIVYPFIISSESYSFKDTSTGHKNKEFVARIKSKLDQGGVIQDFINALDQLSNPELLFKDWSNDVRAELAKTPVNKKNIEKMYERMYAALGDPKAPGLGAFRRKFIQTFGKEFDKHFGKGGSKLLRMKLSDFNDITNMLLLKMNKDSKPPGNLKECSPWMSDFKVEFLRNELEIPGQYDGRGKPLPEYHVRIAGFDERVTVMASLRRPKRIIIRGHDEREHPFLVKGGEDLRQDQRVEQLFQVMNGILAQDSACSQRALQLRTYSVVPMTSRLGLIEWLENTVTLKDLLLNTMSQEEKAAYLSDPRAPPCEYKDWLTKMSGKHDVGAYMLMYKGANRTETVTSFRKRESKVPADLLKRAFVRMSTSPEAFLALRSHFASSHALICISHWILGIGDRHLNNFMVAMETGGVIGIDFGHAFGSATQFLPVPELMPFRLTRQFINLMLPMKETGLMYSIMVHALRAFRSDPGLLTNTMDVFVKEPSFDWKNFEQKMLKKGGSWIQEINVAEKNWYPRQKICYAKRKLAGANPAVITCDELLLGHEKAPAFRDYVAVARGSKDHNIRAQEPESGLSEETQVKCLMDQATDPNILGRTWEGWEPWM
measurementKind: IC50

Entry COc1ccc([C@@H](O)c2cc(-c3ncnc4cc(N5CCOCC5)ccc34)c(F)cc2Cl)nn1 [M3814] ; assay system purified full-length human Artemis with DNA-PKcs (Homo sapiens, UniProt Q96SD1); IC50 recorded at 3 nM
